Provide the recorded TGI for the entries that follow.
- System: SK-MEL-5 melanoma
- RUN_DESCRIPTION: NCI tumour cell line growth inhibition, 48 h

Here's what some known entries look like.
>>> measured_result("CN(CCN1C(=O)c2cc([N+](=O)[O-])cc3cc([N+](=O)[O-])cc(c23)C1=O)CCN1C(=O)c2cc([N+](=O)[O-])cc3cc([N+](=O)[O-])cc(c23)C1=O")
"8.49 µM"
>>> measured_result("Cc1ccc(S(=O)(=O)NC(=O)NCCc2cnc[nH]2)cc1")
"> 100 µM"
>>> measured_result("COc1ccc2nc3c(C(=O)NCCN(C)C)cccc3cc2c1")
"3.28 µM"
>>> measured_result("CN(C)CCCc1cccc2[nH]c3c(c12)CN(C)CC3")
"> 100 µM"
>>> measured_result("COc1ccc(N=Nc2c(C)c(C#N)c(=S)n(C3OC(CO)C(O)C(O)C3O)c2-c2ccccc2)cc1 (configuration not stated)")
"27.8 µM"
>>> measured_result("N#CC(C(=O)c1cccnc1Cl)c1nc2cc(C(F)(F)F)ccc2s1 (configuration not stated)")
"> 100 µM"

Parameters: items (list). Returns: TGI for each item.
1. CCN(CC)c1ccc(/C=N/NC(=O)CSc2nc3ccccc3c(=O)n2CCc2ccc(S(N)(=O)=O)cc2)c(O)c1
2. CC(=O)O[C@H]1C(=O)[C@@]2(C)[C@H]([C@H](OC(=O)c3cccc([N+](=O)[O-])c3)[C@]3(O)C[C@H](OC(=O)[C@H](O)[C@@H](NC(=O)c4ccccc4)c4ccccc4)C(C)=C1C3(C)C)[C@]1(OC(C)=O)CO[C@@H]1C[C@@H]2O

Found:
1: 14.9 µM; 2: > 9.01 µM

For each of the compounds below, note its TGI.
1. CCCCCCCCCCCCOC1C(CNC(=O)C2OC3OC(C)(C)OC3C2NC(=O)Nc2ccc(CC(=O)OC)cc2)OC2OC(C)(C)OC21 (configuration not stated)
2. CC(=O)OCC1OC(n2cc(F)c(=O)[nH]c2=O)C(NC(=O)N(CCCl)N=O)C(OC(C)=O)C1OC(C)=O (configuration not stated)
3. NC1=CN(CCCO)C2=N/C(=C\c3ccccc3)C(=O)N12
4. O=C1/C(=C\Oc2ccc(F)cc2)N2CCC1CC2

Found:
1: > 100 µM; 2: > 100 µM; 3: > 100 µM; 4: > 100 µM

---

- Test system: PC-3 prostate
- RUN_DESCRIPTION: NCI tumour cell line growth inhibition, 48 h
MEASUREMENT_KIND: TGI

>>> measured_result("Cc1cn([C@@H]2C[C@@H]2CO)c(=O)[nH]c1=O")
"> 100 µM"
>>> measured_result("CN(C)c1ccc(C=Nc2ccc(-c3nc4ccccc4[nH]3)cc2)cc1")
"> 100 µM"
>>> measured_result("O=c1c2cc(I)ccc2nc(SCc2nncs2)n1Cc1ccccc1")
"> 100 µM"

Take each entry in turn and give its TGI.
1. CCSCC1CC(O)(c2ccccc2)CC(c2ccc(F)cc2)O1 (stereo not drawn)
2. O=c1cc(N=Nc2ccc(Br)cc2)[nH]c(=S)[nH]1
3. CCCNC(=S)/N=C/c1c(O)cc(C)oc1=O
4. COc1ccccc1NC(=S)N/N=C/c1c(C)n(C)n(-c2ccccc2)c1=O
5. CC(C)(Br)C(=O)N1CCN(C(c2ccccc2)c2ccccc2)CC1
6. COc1ccc2c(c1OC)C[C@@H]1c3c(cc4c(c3-2)OCO4)CCN1C

Found:
4.89 µM
> 100 µM
> 100 µM
> 100 µM
> 100 µM
89.2 µM

Go through the list and state TGI for each entry.
1. CN(C)CCCN1C(=S)N(CCCN(C)C)c2c3ccccc3nc3c([N+](=O)[O-])ccc1c23
2. S=c1[nH]nc(CNc2ccc(-c3n[nH]c(=S)n3-c3ccc(Cl)cc3)cc2)n1-c1ccc(Cl)cc1
3. CNNC1=NS(=O)(=O)c2cc(C#N)c(Cl)cc2S1
4. COC(=O)/C=C1\C(=O)N(C(C)=O)c2ccc(Br)cc21
5. Cc1cc(S(=O)(=O)Nc2nc3ccccc3o2)c(SCc2ccccc2)cc1Cl
6. CC(=O)O[C@H]1C(=O)[C@@]2(C)[C@H]([C@H](OC(=O)c3cccc([N+](=O)[O-])c3)[C@]3(O)C[C@H](OC(=O)[C@H](O)[C@@H](NC(=O)c4ccccc4)c4ccccc4)C(C)=C1C3(C)C)[C@]1(OC(C)=O)CO[C@@H]1C[C@@H]2O

Found:
1: > 42.4 µM; 2: > 100 µM; 3: > 10 µM; 4: 20.9 µM; 5: 30.5 µM; 6: > 25 µM

Give me TGI for each of these compounds, listed below.
1. O=C1CSCc2sccc21
2. COc1ccc(C2NC(=S)Nc3c2c(=O)oc2c3ccc3ccccc32)cc1 (stereo not drawn)
3. c1ccc2c(Cc3[nH]c4ccccc4c3Cc3c[nH]c4ccccc34)c[nH]c2c1

Found:
["> 100 µM", "> 100 µM", "8.37 µM"]

---

- Test system: HS 578T breast
- RUN_DESCRIPTION: NCI tumour cell line growth inhibition, 48 h
Where a SMILES comes first, the peptide text is derived from it. [ ]: non-standard residue; d: D form. The star is where a group is joined. ξ: configuration not given here. ξF = NC(Cc1ccccc1)C(=O)O; Cbz = O=C(OCc1ccccc1)*; Aib = CC(C)(N)C(=O)O; NHNH2 = NN*
For each of the molecules below, state its TGI.

Worked set:
>>> measured_result("COc1ccc2c(c1OC)C[C@@H]1c3c(cc4c(c3-2)OCO4)CCN1C")
"> 100 µM"
>>> measured_result("CC(C)(NC(=O)OCc1ccccc1)C(=O)NC(Cc1ccccc1)C(=O)NN (stereo not drawn) (Cbz-[Aib]-[ξF]-NHNH2)")
"> 100 µM"

Please state TGI for every molecule in the list that follows.
1. CS(=O)(=O)Nc1cncc(-c2ccc3ncnc(Nc4ccc(F)c(Cl)c4)c3c2)c1
2. O=C(Cc1ccc(/C=C/C(=O)c2ncc[nH]2)cc1)Nc1ccc(F)cc1
3. COc1cc(Nc2nc3cc(N)cc(N)c3nc2-c2ccccc2)cc(OC)c1OC
4. O=C(O[C@@H](/C=C/c1ccccc1)P1(=O)N(Cc2ccccc2)[C@H]2CCCC[C@@H]2N1Cc1ccccc1)c1ccccc1

Found:
1: 4.38 µM; 2: > 33.3 µM; 3: 78.1 µM; 4: > 100 µM

---

Hi there, I'd appreciate the recorded TGI for every entry that follows.
- Tested on: T-47D breast
- RUN_DESCRIPTION: NCI tumour cell line growth inhibition, 48 h

>>> measured_result("O=C1C[C@H](c2ccccc2)O[C@@H](c2ccccc2)C1")
"> 100 µM"

Fill in TGI for each of the 2 compounds listed.
1. COc1ccccc1NC(=S)NN=C(C)c1cccc(C(C)=NNC(=S)Nc2ccccc2OC)n1
2. COC(=O)/C(C#N)=C(\Nc1ccccc1)N1CCOCC1

Found:
["> 100 µM", "> 100 µM"]

---

- System: A549 NSCLC
- RUN_DESCRIPTION: NCI tumour cell line growth inhibition, 48 h
MEASUREMENT_KIND: TGI

Before answering, review these 3 worked examples.
>>> measured_result("Cc1cc(S(=O)(=O)Nc2n[nH]c(Nc3ccc(Cl)cc3)n2)c(S)cc1Cl")
"> 100 µM"
>>> measured_result("Cc1cn(C2CC(O)C(COC(=O)c3ccccc3)O2)c(=O)[nH]c1=O (stereo unspecified)")
"> 100 µM"
>>> measured_result("Nc1c(C(=O)O)nnc2cc(Cl)c(Cl)cc12")
"> 100 µM"

Give one value of TGI per listed molecule.
1. O=C1CSC(/C=C/c2ccccc2)N1c1nc2cc3sc(N4C(=O)CSC4/C=C/c4ccccc4)nc3cc2s1 (stereo unspecified)
2. CC(C)C1=CC(=O)C(C)(C2C(O)CC3(C)C4CC=C5C(CCC(OC6OC(CO)C(O)C(O)C6OC6OC(C)C(O)C(O)C6O)C5(C)C)C4(C)C(=O)CC23C)O1 (stereo unspecified)
3. COc1c(CC=C(C)C)c(O)c(C(CC(C)C)c2c(O)c3c(c(C(C)=O)c2O)OC(C(C)(C)O)C3)c(O)c1C(C)=O (stereo unspecified)
4. Oc1ccc(O)c(CNc2ccc(C(O)C(F)(F)F)cc2)c1 (stereo unspecified)
5. CN(CCN1C(=O)c2cc([N+](=O)[O-])cc3cc([N+](=O)[O-])cc(c23)C1=O)CCN1C(=O)c2cc([N+](=O)[O-])cc3cc([N+](=O)[O-])cc(c23)C1=O
6. Cc1ccc(NC(Nc2ccc(C)cc2C)=C(C(Cl)=C(Cl)Cl)[N+](=O)[O-])c(C)c1

Found:
> 100 µM
> 100 µM
> 12.5 µM
> 100 µM
> 100 µM
28.4 µM

Hey, can you go through the list below and give me TGI for every item?
1. Cc1c(N2C(=O)/C(=C/c3ccc(Cl)cc3)N=C2c2ccccc2)c(=O)n(-c2ccccc2)n1C
2. Cc1ccccc1N=Nc1c(O)c(S(=O)(=O)O)cc2cc(S(=O)(=O)O)ccc12

Found:
99.4 µM
> 100 µM
